# Test Parameters: in n-propyl acetate, 293.15 K
Measurement Label: solubility (mole fraction)
One number for each entry.

Q: So what's the measured solubility (mole fraction) for this one? COc1cccc(C(=O)O)c1OC
Result: 0.0193

----------
# Test Parameters: in isopropyl acetate, 308.15 K
Measurement Label: solubility (mole fraction)
Give bare numbers.

Q: Would you kindly share the measured solubility (mole fraction) for COc1cccc(C(=O)O)c1OC ?
Result: 0.029

----------
# Test Parameters: in 2-ethoxyethanol, 298.15 K
Measurement Label: solubility (mole fraction)
One number for each entry.

Q: Give its solubility (mole fraction) value. Item: COc1cccc(C(=O)O)c1OC
Result: 0.0733

----------
# Test Parameters: in acetonitrile, 323.15 K
Measurement Label: solubility (mole fraction)
Give bare numbers.

Q: State the recorded solubility (mole fraction) for this entry: COc1cccc(C(=O)O)c1OC
Result: 0.0734

----------
# Test Parameters: in water, 288.15 K
Measurement Label: solubility (mole fraction)

Q: # lookup: solubility (mole fraction) of COc1cccc(C(=O)O)c1OC
Result: 7.77e-05

----------
# Test Parameters: in water, 308.15 K
Measurement Label: solubility (mole fraction)
Numbers only.

Q: Can you look up the measured solubility (mole fraction) of COc1cccc(C(=O)O)c1OC for me?
Result: 0.000202

----------
# Test Parameters: in ethanol, 298.15 K
Measurement Label: solubility (mole fraction)

Q: Form field: reported solubility (mole fraction) of COc1cccc(C(=O)O)c1OC
Result: 0.0304

----------
# Test Parameters: in 1,4-dioxane, 308.15 K
Measurement Label: solubility (mole fraction)
Give bare numbers.

Q: Query: solubility (mole fraction); subject: COc1cccc(C(=O)O)c1OC
Result: 0.11

----------
# Test Parameters: in acetonitrile, 278.15 K
Measurement Label: solubility (mole fraction)
Give bare numbers.

Q: Give the measured solubility (mole fraction) of COc1cccc(C(=O)O)c1OC .
Result: 0.0108

----------
# Test Parameters: in isopropanol, 318.15 K
Measurement Label: solubility (mole fraction)
Answers are plain numbers.

Q: So what does the record say about solubility (mole fraction) for COc1cccc(C(=O)O)c1OC ?
Result: 0.0632

----------
# Test Parameters: in n-propyl acetate, 323.15 K
Measurement Label: solubility (mole fraction)
Numbers only.

Q: Item under review: COc1cccc(C(=O)O)c1OC . Reported solubility (mole fraction)?
Result: 0.0583

----------
# Test Parameters: in acetonitrile, 298.15 K
Measurement Label: solubility (mole fraction)
One number for each entry.

Q: // lookup solubility (mole fraction) for COc1cccc(C(=O)O)c1OC
Result: 0.0254

----------
# Test Parameters: in 2-ethoxyethanol, 283.15 K
Measurement Label: solubility (mole fraction)
One number for each entry.

Q: Fill in the blank: the reported solubility (mole fraction) of COc1cccc(C(=O)O)c1OC is ____.
Result: 0.0485

----------
# Test Parameters: in water, 323.15 K
Measurement Label: solubility (mole fraction)
Answers are plain numbers.

Q: Given the compound COc1cccc(C(=O)O)c1OC , what is its reported solubility (mole fraction)?
Result: 0.000399

----------
# Test Parameters: in acetonitrile, 303.15 K
Measurement Label: solubility (mole fraction)
Numbers only.

Q: Data request, read-out solubility (mole fraction), for COc1cccc(C(=O)O)c1OC
Result: 0.0309

----------
# Test Parameters: in n-butanol, 298.15 K
Measurement Label: solubility (mole fraction)
Answers are plain numbers.

Q: Which solubility (mole fraction) value belongs to COc1cccc(C(=O)O)c1OC ?
Result: 0.0219
